# assayed_target: protein kinase C
# experiment: Protein Kinase C Inhibition (PKC assay, histone H1 phosphorylation)
# conditions_used: 10 minutes; histone H1 substrate; rat brain enzyme
attribute_measured: IC50 (µM)

Look over these answered cases.
smiles_notation: COc1c2occc2c(S(=O)(=O)NCCCNCCCCNCCCN)c2ccc(=O)oc12
readout_number: 30

smiles_notation: COc1c2occc2c(S(=O)(=O)NCCCN(C)CCCNS(=O)(=O)c2c3ccoc3c(OC)c3oc(=O)ccc23)c2ccc(=O)oc12
readout_number: 17

smiles_notation: COc1c2occc2c(S(=O)(=O)NCCCNCCCCNCCCNS(=O)(=O)c2c3ccoc3c(OC)c3oc(=O)ccc23)c2ccc(=O)oc12
readout_number: 24

I = COc1c2occc2c(S(=O)(=O)NCCCCNCCCNS(=O)(=O)c2c3ccoc3c(OC)c3oc(=O)ccc23)c2ccc(=O)oc12
II = COc1c2occc2c(S(=O)(=O)NCCCNCCCNS(=O)(=O)c2c3ccoc3c(OC)c3oc(=O)ccc23)c2ccc(=O)oc12
Compare I and II and name the one whose reported IC50 is smaller. The response must carry the label of the picked entry.
I
(I: 21 µM, II: 33 µM)
